Measured values drawn from patent US20240279318A1 for this set.

target: T1, AFP158/HLA-A*02:01 complex (human); assay: SPR, crude scFv captured, pMHC analyte;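 further: complex injected at several concentrations over the chip, association phase then running buffer for dissociation, KD derived from on- and off-rates computed from both curves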
T1 construct: flowed as analyte in SPR

binder: AS170036 VL1VH1-56N98Q108S (scFv, also called 57-AS170036 VL1VH1-56N98Q108S) scFv: QSALTQPRSVSGSPGQSVTISCAGTSSDVGSENYVSWYQQHPGKAPKLMIYQVNKRASGVPDRFSGSKSGNTASLTISGLQAEDEADYYCASYRSSDQNIVFGGGTKLTVLGGGGSGGGGSGGGGSEVQLVESGGGLVQPGGSLRLSCAASGFTFSSYAMSWVRQAPGKGLEWVSTINSGTNSPYYADSVKGRFTISRDNSKNTLYLQMNSLRAEDTAVYYCAKNFFDGSWFLSPPAMDYWGQGTLVTVSSHHHHHH
kon / M⁻¹ s⁻¹: 180000
//
binder: AS170036 VL1VH1-57M98I108D (scFv, also called 80-AS170036 VL1VH1-57M98I108D) scFv: QSALTQPRSVSGSPGQSVTISCAGTSSDVGSENYVSWYQQHPGKAPKLMIYQVNKRASGVPDRFSGSKSGNTASLTISGLQAEDEADYYCASYRSSDINIVFGGGTKLTVLGGGGSGGGGSGGGGSEVQLVESGGGLVQPGGSLRLSCAASGFTFSSYAMSWVRQAPGKGLEWVSTINSGTGMPYYADSVKGRFTISRDNSKNTLYLQMNSLRAEDTAVYYCAKNFFDGSWFLDPPAMDYWGQGTLVTVSSHHHHHH
kon / M⁻¹ s⁻¹: 260000
//
binder: AS170036 VL1VH1-56Y98Q108D (scFv, also called 47-AS170036 VL1VH1-56Y98Q108D) scFv: QSALTQPRSVSGSPGQSVTISCAGTSSDVGSENYVSWYQQHPGKAPKLMIYQVNKRASGVPDRFSGSKSGNTASLTISGLQAEDEADYYCASYRSSDQNIVFGGGTKLTVLGGGGSGGGGSGGGGSEVQLVESGGGLVQPGGSLRLSCAASGFTFSSYAMSWVRQAPGKGLEWVSTINSGTYSPYYADSVKGRFTISRDNSKNTLYLQMNSLRAEDTAVYYCAKNFFDGSWFLDPPAMDYWGQGTLVTVSSHHHHHH
kon / M⁻¹ s⁻¹: 240000
